PROTOCOL_DESCRIPTION: soluble on expression in E. coli; label from the status in PepcDB or PDB records
MEASURED_PARAMETER: soluble on expression in E. coli

Study these solved cases before continuing.
[[record]]
primary_sequence = "MVLGLASFPESLSSQSETATQPRRPSVKWDLGSDYRKGTEETTASGSNFRRERLDSQPDLGLHVQPQIYFLRPRSPLPKLLFSLMNTNDANVKKLLPKSHLSRVIIRDNLNAQRICEMEMKASDKTKRKMSYLYDHLKKKFMMDQLRKMIRWRRDSQSTQDYLDKERV"
measured_parameter = "soluble on expression in E. coli"
recorded_measurement = "not soluble"

[[record]]
primary_sequence = "MCMNTQSPPSPHDPHGAAALPFRLWTAEERRASLDTALREWRDGEDVWVYGYGSLIWRPDFDFVERRLATLHGHHRALLWSRVNRGTPECPGLVFGLDRGGSCRGVVYRLAGRQVPDYFPALWDREMSTGAYLPRWLRCATEHGPVNALVFIMNRANPAYIRALPEPELLAIVRRASGRYGPCTEYVVQTAQALRQAGIRDARLEQIARQLEAEVHPLGVLEHHHHHH"
measured_parameter = "soluble on expression in E. coli"
recorded_measurement = "soluble"

[[record]]
primary_sequence = "MGSDKIHHHHHHMLKLCGFAASNYYNKVKLALLEKNVPFEEVLAWIGETDTTATPAGKVPYMITESGSLCESEVINEYLEAAYPQTPLLPRDPMQAGKVREIVTFLELYLELTARELYPEAFFGGKVSDNVKERQLKLLSRYVPAFAKLAKFSPYVAGDTFTLADCAAAVHLPLVSSCTKIIYGKDLLADLPVKEYLKTLSERPSVQKVNADRKANTELMLSRNK"
measured_parameter = "soluble on expression in E. coli"
recorded_measurement = "not soluble"

[[record]]
primary_sequence = "MGSDKIHHHHHHMNIAIDARGINLYRGTGIGTYTENLVRELLNIDEENSYTLYWYGNNYKDFIKSNTKINIVSKGCHSFFEKCYFPENIIKNSIEIYHVPQNGIGLDQNVSCIKVSTVHDLIPYIMPETVGKGYLLKFLKNMPFIIENSDAILTVSEYSKKDILKYFPINEDKIYVTPLAANYNYKPLSREHCKKFIEKNYSISDPFVLYLGGFSKRKNVRNLILAFADASKKLSKKHNLVIIGLCRDELESLKDLCRHLNISNEVIFTGYIGERFLPVFYNACELFVYPSLYEGFGLPVLEAMSCKTPVVTSNISSIPEIAGDSAVLINPLDTSELRDAILNILEDSKLKQKLSIEGFNRSRKFSWKNTSKKTLEAYSNIYNTFA"
measured_parameter = "soluble on expression in E. coli"
recorded_measurement = "not soluble"


Record request: soluble on expression in E. coli value, item MGSDKIHHHHHHMTLPATITHQEKLLTVDTTAHPFLKALGGHEGTDIFPLFMDPYNGLMVMRASFAPGLTLPLHFHTGTVHMYTISGCWYYTEYPGQKQTAGCYLYEPGGSIHQFNTPRDNEGQTEVIFMLSGCNVNFTQDGTYLGLSDAGVIKNWVDRAIREQDNGLRYIAAAVPTYAA
not soluble

Same again, this time with MKLESLVEEARQCQDRTVAVAAAEDEEVIEAVAMALEHRLGRFVLYGDRERLGRLLKEKGCARFSDVDVVHANSIGQAAELAVRAVHLNEADALMKGHVPTATLLKAVLNKEYGLRTGKVLSHVAVFEVPEFDRFVIVTDAAMNIAPDLEQKAQIVNNAVSIARSIGIERPKVAALAAVETVNPAMPATVDAAALAMMQKRGQIEHCLLDGPLALDNAVSLAAAKHKRIESEVAGQADILLVPDIESGNMLYKSLVYFANARVGAVIAGAKAPIVLTSRADSAESKLYSLALAICSAAK
not soluble

Same again, this time with MSLQYQNQDNFPERIEYLVDKLNGPSEFARKTGVTLSTITRWRKGEADPSRSNLVKIAEVTGVSIEWLATGKIKEEKTTEEKPAGSLVSRAFERMQAMLEEGVSMIDSYSSINVSAGFGSFNEGITQPDGQEPYSDELLTSLGVKADNCAVFWANGNSMLPTINNYDQMLVDLSRKEIQGDRIYLVQNGESVWVKRVKMEWDGISLISDNKEEYPPISITGENAQNLQIIGQVVHIGHSLIEGHHHHHH
soluble

Same again, this time with SNASYETSQHNLDAVEAVLSRLQKQTGEMAAYMVPVGYRALCVSQRESMQALRCSFVQGQSQPLLRGASSKVMLAYMPAARCEKILRYFGEDPTLDKWQSEFEKIRRHGYAVSTSEIDPGVSGISAPVMKGSKLIGAISVMAPAHRVESNKQRIILHVLQAARAL
soluble
